# melting point listing for each entry below

Some entries whose results are on file:
[[record]]
compound_smiles = "O=C1O[C@H]([C@@H](O)Cn2cc(CNS(=O)(=O)c3ccc(Cl)cc3)nn2)C(O)=C1O"
reported = "132 to 134 °C"

[[record]]
compound_smiles = "O=C1O/C(=C\\Cn2cc(-c3ccccc3O)nn2)C(O)=C1O"
reported = "167 to 169 °C"


melting point reported for this compound CCCCCc1ccc(-c2cn(C/C=C3\OC(=O)C(O)=C3O)nn2)cc1 : 230 to 232 °C

melting point reported for this compound O=C1O[C@H]([C@@H](O)Cn2cc(-c3ccccc3O)nn2)C(O)=C1O : 129 to 131 °C

melting point reported for this compound O=C1O/C(=C\Cn2cc(-c3cc(F)cc(F)c3)nn2)C(O)=C1O : ≥ 200 °C

melting point reported for this compound CC(C)(C)c1cn(C[C@H](O)[C@H]2OC(=O)C(O)=C2O)nn1 : ≥ 250 °C

melting point reported for this compound COc1ccc(-c2cn(C/C=C3\OC(=O)C(O)=C3O)nn2)cc1 : 198 to 199 °C

melting point reported for this compound O=C1O[C@H]([C@@H](O)Cn2cc(-c3cc(F)cc(F)c3)nn2)C(O)=C1O : 189 to 191 °C

melting point reported for this compound O=C1O/C(=C\Cn2cc(-c3cc(C(F)(F)F)cc(C(F)(F)F)c3)nn2)C(O)=C1O : ≥ 200 °C

melting point reported for this compound O=C1O[C@H]([C@@H](O)Cn2cc(CNS(=O)(=O)c3ccc(F)cc3Cl)nn2)C(O)=C1O : 198 to 200 °C

melting point reported for this compound CC(C)(C)c1cn(C/C=C2\OC(=O)C(O)=C2O)nn1 : 182 to 184 °C

melting point reported for this compound O=C1O/C(=C\Cn2cc(-c3cccc(O)c3)nn2)C(O)=C1O : 155 to 157 °C

melting point reported for this compound CCCCc1cn(C/C=C2\OC(=O)C(O)=C2O)nn1 : 180 to 183 °C
